target: C-C chemokine receptor type 5 (Homo sapiens); assay: Binding affinity towards human CCR5 receptor in Chinese hamster ovary (CHO) cells using [125I]-MIP-1 alpha as radioligand at a concentration of 4000 nM; type: cell-based
Sequence (P51681 whole entry, looked up): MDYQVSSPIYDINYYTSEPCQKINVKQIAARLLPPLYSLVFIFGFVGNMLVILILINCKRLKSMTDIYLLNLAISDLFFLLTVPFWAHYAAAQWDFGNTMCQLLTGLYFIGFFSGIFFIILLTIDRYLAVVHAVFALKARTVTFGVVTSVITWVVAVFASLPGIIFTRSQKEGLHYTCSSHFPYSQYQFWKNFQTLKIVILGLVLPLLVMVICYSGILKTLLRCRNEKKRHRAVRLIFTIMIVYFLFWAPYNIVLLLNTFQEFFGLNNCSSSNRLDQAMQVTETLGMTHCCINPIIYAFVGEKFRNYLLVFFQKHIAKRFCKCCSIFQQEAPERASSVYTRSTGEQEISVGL
readout-name: inhibition (%)

Observe how each entry below is paired with its result.
INSERT INTO results (compound, test_system, value_measured) VALUES
  ('CN(C[C@@H](CCN1CCC2(CC1)CSc1ccccc12)c1ccc(Cl)c(Cl)c1)C(=O)c1ccccc1', 'C-C chemokine receptor type 5 (Homo sapiens)', 0),
  ('CNC[C@@H](CCN1CCC2(CC1)C[S+]([O-])c1ccccc12)c1ccc(Cl)c(Cl)c1 (stereo not given in full)', 'C-C chemokine receptor type 5 (Homo sapiens)', 0);

P. CN(C[C@@H](CCN1CCC2(CC1)C[S+]([O-])c1ccccc12)c1ccc(Cl)c(Cl)c1)C(=O)c1ccccc1 (stereo not given in full)
Q. CN(C[C@@H](CCN1CCC2(CC1)CS(=O)(=O)c1ccccc12)c1ccc(Cl)c(Cl)c1)C(=O)c1ccccc1
IN: # min-compare on inhibition between P and Q Indicate which entry you chose by stating its label.
OUT: Q

====

target: C-C chemokine receptor type 5 (Homo sapiens, UniProt P51681); assay: Binding affinity towards human CCR5 receptor in Chinese hamster ovary (CHO) cells using [125I]-MIP-1 alpha as radioligand; assay type: cell-based
Sequence (P51681 whole entry): as the sequence (P51681 whole entry, looked up) above
readout-name: IC50 (µM)

Observe how each entry below is paired with its result.
INSERT INTO measurements (molecule, test_system, value_measured) VALUES
  ('CCN(C[C@@H](CCN1CCC2(CC1)CSc1ccccc12)c1ccc(Cl)c(Cl)c1)S(=O)(=O)c1ccccc1', 'C-C chemokine receptor type 5 (Homo sapiens, UniProt P51681)', 10),
  ('CN(C[C@@H](CCN1CCC2(CC1)C[S+]([O-])c1ccccc12)c1ccc(Cl)c(Cl)c1)S(=O)(=O)c1cccc(Cl)c1 (some centres undefined)', 'C-C chemokine receptor type 5 (Homo sapiens, UniProt P51681)', 0.07),
  ('CN(C[C@@H](CCN1CCC2(CC1)C[S+]([O-])c1ccccc12)c1ccc(Cl)c(Cl)c1)S(=O)(=O)c1ccc2ccccc2c1 (some centres undefined)', 'C-C chemokine receptor type 5 (Homo sapiens, UniProt P51681)', 0.06),
  ('CN(C[C@@H](CCN1CCC2(CC1)C[S+]([O-])c1ccccc12)c1ccc(Cl)c(Cl)c1)S(=O)(=O)c1cnc2ccccc2c1 (some centres undefined)', 'C-C chemokine receptor type 5 (Homo sapiens, UniProt P51681)', 0.12),
  ('CN(C[C@@H](CCN1CCC2(CC1)C[S+]([O-])c1ccccc12)c1ccc(Cl)c(Cl)c1)C(=O)Oc1ccccc1 (some centres undefined)', 'C-C chemokine receptor type 5 (Homo sapiens, UniProt P51681)', 0.78);

a. CN(C[C@@H](CCN1CCC2(CC1)C[S+]([O-])c1ccccc12)c1ccc(Cl)c(Cl)c1)S(=O)(=O)c1ccc2[nH]ccc2c1 (some centres undefined)
b. CN(C[C@@H](CCN1CCC2(CC1)CSc1ccccc12)c1ccc(Cl)c(Cl)c1)S(=O)(=O)c1ccccc1
IN: # min-compare on IC50 between a and b Indicate which entry you chose by stating its label.
OUT: a

====

target: C-C chemokine receptor type 5 (Homo sapiens); assay: Binding affinity towards human CCR5 receptor in Chinese hamster ovary (CHO) cells using [125I]-MIP-1 alpha as radioligand at a concentration of 4000 nM; assay type: cell-based
readout-name: IC50

IN: # query: IC50 of entry CN(C[C@@H](CCN1CCC2(CC1)C[S+]([O-])c1ccccc12)c1ccc(Cl)c(Cl)c1)S(=O)(=O)c1ccsc1 (stereo partly specified)
OUT: > 4 µM
